Method Description: sensitizers of A549 cells to miR-34 induction, primary screen, imaging, A549 dox-inducible miR-34, nuclei and caspase counts (AID 1347080)
Condition Label: A549 miR-34 inducible, Hoechst nuclei count, 48 h; active compounds read low; cell number ratio, induced over uninduced
Sorting guide: entries reporting fold change beneath 1 go in the class 1 pile, the rest go in the class 0 pile.

Some solved cases for reference:
{"columns": ["Compound", "Category Label"],
 "data": [
  ["Cc1cc(=O)c(C(=O)N[C@@H](C(=O)N[C@@H]2C(=O)N3C(C(=O)O)=C(CSc4nnnn4C)CSC23)c2ccc(O)cc2)c[nH]1 (stereo partly drawn)", "class 1"],
  ["CCC(=O)Oc1ccc2c(c1)CCC1C2CC[C@@]2(C)C1CC[C@@H]2OC(=O)CC (stereo partly drawn)", "class 1"],
  ["C[C@H]1[C@@H](OC(=O)CCC(=O)O)O[C@@H]2OC3(C)CC[C@H]4[C@H](C)CC[C@@H]1[C@@]24OO3", "class 0"],
  ["CC(=O)O[C@]1(C(C)=O)CCC2C3C[C@H](C)C4=CC(=O)CC[C@]4(C)C3CC[C@@]21C (stereo partly drawn)", "class 1"],
  ["CCN[C@@H]1C[C@H](N)[C@@H](O[C@H]2OC(CN)=CC[C@H]2N)[C@H](O)[C@H]1OC1OC[C@](C)(O)[C@H](NC)[C@H]1O (stereo partly drawn)", "class 1"]
]}

Hello, is fold change of the following compound strictly smaller than 1? O=C1CN(N=Cc2ccc([N+](=O)[O-])o2)C(=O)N1
class 1

* * *

Method Description: HepG2 cytotoxicity, primary screen, cytotoxicity control for P. falciparum antimalarial project, cell-based, ATP luminescence (AID 2303);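 also: 0% = DMSO wells and 100% = digitonin-killed cells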
Condition Label: HepG2 viability, 24-48 h, at 10 µM
Active and inactive are the calls of the source.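 The calls were made as follows: active = inhibition above 50%; inactive = the rest.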
Thanks in advance; please answer with one of these: active, inactive

Some solved cases for reference:
{"columns": ["Cpd Smiles", "Category Label"],
 "data": [
  ["CN1CCOc2ccc(Nc3nnc(-c4cccc(-c5cccnc5)c4)o3)cc2C1", "inactive"],
  ["O=C(Nc1ccc(-c2nc3ccccc3[nH]2)cc1)C1CCN(Cc2ccccc2)CC1", "inactive"],
  ["Cc1cc(C(=O)OCC(=O)Nc2c(C)n(C)n(-c3ccccc3)c2=O)c(C)n1-c1ccc(F)cc1", "inactive"]
]}

Dear colleague, could you share the recorded outcome for CC(C)(CNC(=O)C1CCN(Cc2ccc(Cl)cc2)CC1)c1nc(-c2ccc(Cl)c(O)c2)c(-c2ccncc2)[nH]1 when you have a moment?
inactive

Dear colleague, could you share the recorded outcome for COc1c(C2CCN(CCCCNC(=O)C=Cc3ccccc3C(F)(F)F)CC2)ccc2c1CCCC2 when you have a moment?
active

* * *

Provide the recorded fold change for the entries that follow.
Method Description: sensitizers of A549 cells to miR-34 induction, primary screen, imaging, A549 dox-inducible miR-34, nuclei and caspase counts (AID 1347080)
Condition Label: A549 miR-34 inducible, Hoechst nuclei count, 48 h; active compounds read low; cell number ratio, induced over uninduced
Numbered stars: 1 amine (or outer) side, 2 acyl side, 3 side chain; on linkers, the order of the positions; unused ones are H or OH. Bridge positions count the residues as written; N and C are the ends. Square brackets hold non-standard residues; d marks the D form. Peptide text beside a SMILES is read from it. I, II: the chains in the order shown. Actinocin(9to1) = Cc1c2oc3c(C)ccc(C(=O)[*:1])c3nc-2c(C(=O)[*:2])c(N)c1=O; NMeV = CN[CH](C(=O)O)C(C)C; Sar = CNCC(=O)O
Answers are plain numbers.

{"columns": ["Molecule", "Observed Value"],
 "data": [
  ["CC(=O)c1cc2ccccc2oc1=O", 0.915],
  ["CCN(CC)CCOc1ccc(Nc2ncc3cc(-c4c(Cl)cccc4Cl)c(=O)n(C)c3n2)cc1", 1.1],
  ["Cc1cc2nc3c(=O)[nH]c(=O)nc-3n(CC(O)C(O)C(O)CO)c2cc1C (stereo unspecified)", 0.948],
  ["C[N+](C)(C)CCOP(=O)([O-])OP(=O)(O)OC[C@H]1OC(n2ccc(N)nc2=O)[C@H](O)[C@@H]1O (stereo partly specified)", 0.9],
  ["NC(N)=Nc1nc(CSCC/C(N)=N\\S(N)(=O)=O)cs1", 0.887]
]}

For each entry beneath this line, provide reported fold change.
1. COc1cc(N)c(Cl)cc1C(=O)N[C@@H]1CCN(CCCOc2ccc(F)cc2)C[C@@H]1OC
2. C=C1CC[C@H](O)C/C1=C/C=C1\CCCC2(C)C1CCC2C(C)CCCC(C)C (stereo partly specified)
3. Cc1c2oc3c(C)ccc(C(=O)NC4C(=O)NC(C(C)C)C(=O)N5CCCC5C(=O)N(C)CC(=O)N(C)C(C(C)C)C(=O)OC4C)c3nc-2c(C(=O)NC2C(=O)NC(C(C)C)C(=O)N3CCCC3C(=O)N(C)CC(=O)N(C)C(C(C)C)C(=O)OC2C)c(N)c1=O (stereo unspecified) (I: TVP[Sar][NMeV] / II: TVP[Sar][NMeV]; ester I:1-I:C, II:1-II:C; linker I:N-II:N via Actinocin(9to1); configuration not given here)
4. CC1=C(C(=O)O)N2C(=O)[C@@H](NC(=O)[C@H](N)C3=CCC=CC3)C2SC1 (stereo partly specified)

1: 0.991; 2: 0.909; 3: 1.02; 4: 0.89

Reference source for all entries: PubChem BioAssay
